src = ChEMBL document CHEMBL2010719

Target: Integrin alpha-4/beta-7 (Mus musculus) (UniProt Q00651+P26011)
Assay: Inhibition of integrin alpha4 beta7 receptor in mouse TK1 cells assessed as inhibition of Mn2+-activated cell adhesion to mouse MAdCAM-1-Fc at 100 uM after 1 hr using methylene blue staining relative to biotin-r9YDRREY
Type: cell-based
Residues, ends and D or L forms follow the SMILES beside them. *: point of attachment. X3 = CC(=O)N[C@H]1[C@H](OC(C)=O)[C@H](OC(C)=O)[C@H](COC(C)=O)O[C@@H]1n1cc(C*)nn1; X9 = CC(=O)N[C@@H]1[C@H](OCCCn2cc(C*)nn2)O[C@@H](CO)[C@@H](O)[C@H]1O; X5 = O=C(N[C@@H](Cn1cc(C*)nn1)C(=O)O)OCC1c2ccccc2-c2ccccc21; Biotin = O=C1N[C@H]2[C@H](CS[C@H]2CCCCC(=O)*)N1; X8 = O=P(O)(O)CCn1cc(C*)nn1; X7 = O=C(O)Cn1cc(C*)nn1
Answer false (0) if inhibition is under 40%, and true (1) if it is 40% or more.

Enquiry: Item CC(=O)N[C@@H]1[C@H](OCCCn2cc(COc3ccc(C[C@H](NC(=O)[C@H](CCCNC(=N)N)NC(=O)[C@H](CCC(=O)O)NC(=O)[C@H](CCCNC(=N)N)NC(=O)[C@H](CCCNC(=N)N)NC(=O)[C@H](CCCNC(=N)N)NC(=O)[C@H](CCCNC(=N)N)NC(=O)[C@H](CCCNC(=N)N)NC(=O)[C@H](CCCNC(=N)N)NC(=O)[C@H](CCCNC(=N)N)NC(=O)[C@H](CCCNC(=N)N)NC(=O)CCCC[C@@H]4SC[C@@H]5NC(=O)N[C@@H]54)C(=O)O)cc3)nn2)O[C@@H](CO)[C@@H](O)[C@H]1O (Biotin-RRRRRRRRERY(X9)-OH) with inhibition of 40% or above?
Return: true (1)

Enquiry: Item N=C(N)NCCC[C@H](NC(=O)CCCC[C@@H]1SC[C@@H]2NC(=O)N[C@@H]21)C(=O)N[C@@H](CCCNC(=N)N)C(=O)N[C@@H](CCCNC(=N)N)C(=O)N[C@@H](CCCNC(=N)N)C(=O)N[C@@H](CCCNC(=N)N)C(=O)N[C@@H](CCCNC(=N)N)C(=O)N[C@@H](CCCNC(=N)N)C(=O)N[C@@H](CCCNC(=N)N)C(=O)N[C@@H](CCC(=O)O)C(=O)N[C@@H](CCCNC(=N)N)C(=O)N[C@@H](Cc1ccc(OCc2cn(C[C@H](NC(=O)OCC3c4ccccc4-c4ccccc43)C(=O)O)nn2)cc1)C(=O)O (Biotin-RRRRRRRRERY(X5)-OH) with inhibition of 40% or above?
Return: true (1)

Enquiry: Item N=C(N)NCCC[C@H](NC(=O)CCCC[C@@H]1SC[C@@H]2NC(=O)N[C@@H]21)C(=O)N[C@@H](CCCNC(=N)N)C(=O)N[C@@H](CCCNC(=N)N)C(=O)N[C@@H](CCCNC(=N)N)C(=O)N[C@@H](CCCNC(=N)N)C(=O)N[C@@H](CCCNC(=N)N)C(=O)N[C@@H](CCCNC(=N)N)C(=O)N[C@@H](CCCNC(=N)N)C(=O)N[C@@H](CCC(=O)O)C(=O)N[C@@H](CCCNC(=N)N)C(=O)N[C@@H](Cc1ccc(OCc2cn(CCP(=O)(O)O)nn2)cc1)C(=O)O (Biotin-RRRRRRRRERY(X8)-OH) with inhibition of 40% or above?
Return: true (1)

Enquiry: Item N=C(N)NCCC[C@H](NC(=O)CCCC[C@@H]1SC[C@@H]2NC(=O)N[C@@H]21)C(=O)N[C@@H](CCCNC(=N)N)C(=O)N[C@@H](CCCNC(=N)N)C(=O)N[C@@H](CCCNC(=N)N)C(=O)N[C@@H](CCCNC(=N)N)C(=O)N[C@@H](CCCNC(=N)N)C(=O)N[C@@H](CCCNC(=N)N)C(=O)N[C@@H](CCCNC(=N)N)C(=O)N[C@@H](CCC(=O)O)C(=O)N[C@@H](CCCNC(=N)N)C(=O)N[C@@H](Cc1ccc(OCc2cn(CC(=O)O)nn2)cc1)C(=O)O (Biotin-RRRRRRRRERY(X7)-OH) with inhibition of 40% or above?
Return: false (0)

Enquiry: Item CC(=O)N[C@H]1[C@H](OC(C)=O)[C@H](OC(C)=O)[C@H](COC(C)=O)O[C@@H]1n1cc(COc2ccc(C[C@H](NC(=O)[C@H](CCCNC(=N)N)NC(=O)[C@H](CCC(=O)O)NC(=O)[C@H](CCCNC(=N)N)NC(=O)[C@H](CCCNC(=N)N)NC(=O)[C@H](CCCNC(=N)N)NC(=O)[C@H](CCCNC(=N)N)NC(=O)[C@H](CCCNC(=N)N)NC(=O)[C@H](CCCNC(=N)N)NC(=O)[C@H](CCCNC(=N)N)NC(=O)[C@H](CCCNC(=N)N)NC(=O)CCCC[C@@H]3SC[C@@H]4NC(=O)N[C@@H]43)C(=O)O)cc2)nn1 (Biotin-RRRRRRRRERY(X3)-OH) with inhibition of 40% or above?
Return: true (1)

---

Molecular target: Integrin alpha-4/beta-7 (Mus musculus) (UniProt Q00651+P26011)
Experiment: Inhibition of integrin alpha4 beta7 receptor in mouse TK1 cells assessed as inhibition of Mn2+-activated cell adhesion to mouse MAdCAM-1-Fc at 50 uM after 1 hr by methylene blue staining analysis relative to biotin-r9YDRREY
Assay type: cell-based
Residues, ends and D or L forms follow the SMILES beside them. *: point of attachment. X3 = CC(=O)N[C@H]1[C@H](OC(C)=O)[C@H](OC(C)=O)[C@H](COC(C)=O)O[C@@H]1n1cc(C*)nn1; X4 = CC(=O)N[C@H]1[C@H](O)[C@H](O)[C@H](CO)O[C@@H]1n1cc(C*)nn1; X5 = O=C(N[C@@H](Cn1cc(C*)nn1)C(=O)O)OCC1c2ccccc2-c2ccccc21; X2 = OC[C@@H]1O[C@H](n2cc(C*)nn2)[C@@H](O)[C@H](O)[C@@H]1O; Biotin = O=C1N[C@H]2[C@H](CS[C@H]2CCCCC(=O)*)N1; X8 = O=P(O)(O)CCn1cc(C*)nn1
test_readout: inhibition (%)
Give just the number in %; leave the unit off.

Enquiry: inhibition lookup needed for N=C(N)NCCC[C@H](NC(=O)CCCC[C@@H]1SC[C@@H]2NC(=O)N[C@@H]21)C(=O)N[C@@H](CCCNC(=N)N)C(=O)N[C@@H](CCCNC(=N)N)C(=O)N[C@@H](CCCNC(=N)N)C(=O)N[C@@H](CCCNC(=N)N)C(=O)N[C@@H](CCCNC(=N)N)C(=O)N[C@@H](CCCNC(=N)N)C(=O)N[C@@H](CCCNC(=N)N)C(=O)N[C@@H](CCC(=O)O)C(=O)N[C@@H](CCCNC(=N)N)C(=O)N[C@@H](Cc1ccc(OCc2cn(C[C@H](NC(=O)OCC3c4ccccc4-c4ccccc43)C(=O)O)nn2)cc1)C(=O)O (Biotin-RRRRRRRRERY(X5)-OH) , thanks.
Return: 114

Enquiry: inhibition lookup needed for CC(=O)N[C@H]1[C@H](O)[C@H](O)[C@H](CO)O[C@@H]1n1cc(COc2ccc(C[C@H](NC(=O)[C@H](CCCNC(=N)N)NC(=O)[C@H](CCC(=O)O)NC(=O)[C@H](CCCNC(=N)N)NC(=O)[C@H](CCCNC(=N)N)NC(=O)[C@H](CCCNC(=N)N)NC(=O)[C@H](CCCNC(=N)N)NC(=O)[C@H](CCCNC(=N)N)NC(=O)[C@H](CCCNC(=N)N)NC(=O)[C@H](CCCNC(=N)N)NC(=O)[C@H](CCCNC(=N)N)NC(=O)CCCC[C@@H]3SC[C@@H]4NC(=O)N[C@@H]43)C(=O)O)cc2)nn1 (Biotin-RRRRRRRRERY(X4)-OH) , thanks.
Return: 28

Enquiry: inhibition lookup needed for N=C(N)NCCC[C@H](NC(=O)CCCC[C@@H]1SC[C@@H]2NC(=O)N[C@@H]21)C(=O)N[C@@H](CCCNC(=N)N)C(=O)N[C@@H](CCCNC(=N)N)C(=O)N[C@@H](CCCNC(=N)N)C(=O)N[C@@H](CCCNC(=N)N)C(=O)N[C@@H](CCCNC(=N)N)C(=O)N[C@@H](CCCNC(=N)N)C(=O)N[C@@H](CCCNC(=N)N)C(=O)N[C@@H](CCC(=O)O)C(=O)N[C@@H](CCCNC(=N)N)C(=O)N[C@@H](Cc1ccc(OCc2cn([C@H]3O[C@@H](CO)[C@@H](O)[C@@H](O)[C@@H]3O)nn2)cc1)C(=O)O (Biotin-RRRRRRRRERY(X2)-OH) , thanks.
Return: 60.2

Enquiry: inhibition lookup needed for CC(=O)N[C@H]1[C@H](OC(C)=O)[C@H](OC(C)=O)[C@H](COC(C)=O)O[C@@H]1n1cc(COc2ccc(C[C@H](NC(=O)[C@H](CCCNC(=N)N)NC(=O)[C@H](CCC(=O)O)NC(=O)[C@H](CCCNC(=N)N)NC(=O)[C@H](CCCNC(=N)N)NC(=O)[C@H](CCCNC(=N)N)NC(=O)[C@H](CCCNC(=N)N)NC(=O)[C@H](CCCNC(=N)N)NC(=O)[C@H](CCCNC(=N)N)NC(=O)[C@H](CCCNC(=N)N)NC(=O)[C@H](CCCNC(=N)N)NC(=O)CCCC[C@@H]3SC[C@@H]4NC(=O)N[C@@H]43)C(=O)O)cc2)nn1 (Biotin-RRRRRRRRERY(X3)-OH) , thanks.
Return: 40

Enquiry: inhibition lookup needed for N=C(N)NCCC[C@H](NC(=O)CCCC[C@@H]1SC[C@@H]2NC(=O)N[C@@H]21)C(=O)N[C@@H](CCCNC(=N)N)C(=O)N[C@@H](CCCNC(=N)N)C(=O)N[C@@H](CCCNC(=N)N)C(=O)N[C@@H](CCCNC(=N)N)C(=O)N[C@@H](CCCNC(=N)N)C(=O)N[C@@H](CCCNC(=N)N)C(=O)N[C@@H](CCCNC(=N)N)C(=O)N[C@@H](CCC(=O)O)C(=O)N[C@@H](CCCNC(=N)N)C(=O)N[C@@H](Cc1ccc(OCc2cn(CCP(=O)(O)O)nn2)cc1)C(=O)O (Biotin-RRRRRRRRERY(X8)-OH) , thanks.
Return: 60.3
